We begin with a simple list: items and their reported CC50.
Test system: SW48 human colorectal cancer cells (MSI-H cancer cells)
Assay: SW48 cell viability, CellTiter-Glo, 120 hours (Example B)
Conditions: Homo sapiens, SW48, 120 h, read-out: SW48 pCC50, SW48 cell viability, 120 hours incubation (converted); Table 2
I only need the number, in nM, no unit after it.

{"COMPOUND": "CCO[C@@H]1C[C@H](c2ccc(N(C)S(=O)(=O)c3ccc4c(c3)nc(N(C)C)n4C)cc2)[C@@H](C(=O)O)[C@H](C(=O)Nc2ccc(C(F)(F)F)cc2F)C1 [Example 139]", "UNIT INFO": "nM", "CC50": 100}

Next up:
CC50 reading for CN(C)Cc1cccc(S(=O)(=O)N(C)c2ccc([C@H]3CCC[C@@H](C(=O)Nc4ccc(C(F)(F)F)cc4F)[C@@H]3C(=O)O)cc2)c1 [Example 97] : 1000

---

Biological target: recombinant full-length WRN protein (1-1432) (Homo sapiens)
Construct: recombinant full-length WRN protein (1-1432)
Test: WRN unwinding activity, fluorogenic 384-well assay (Example A)
Assay type: biochemical
Details: WRN unwinding activity, 4 hr; Table 2; read-out: 4 hr UNW pIC50 (converted)
VALUE KIND: IC50 (nM)
Number in nM, nothing else.

The following molecules have reported results that may help.
{"MOLECULE": "CN(c1ccc([C@H]2CCC[C@@H](C(=O)Nc3ccc(C(F)(F)F)cc3F)[C@@H]2C(=O)O)cc1)S(=O)(=O)c1ccc2ocnc2c1", "TARGET DESC": "recombinant full-length WRN protein (1-1432) (Homo sapiens)", "IC50 (nM)": 3.16}
{"MOLECULE": "CCO[C@@H]1C[C@H](c2ccc(N(C)S(=O)(=O)c3ccc4c(c3)nc(Cl)n4C)cc2)[C@@H](C(=O)O)[C@H](C(=O)Nc2ccc(C(F)(F)F)cc2F)C1 (relative stereo)", "TARGET DESC": "recombinant full-length WRN protein (1-1432) (Homo sapiens)", "IC50 (nM)": 1.58}
{"MOLECULE": "CC(=O)N(C)[C@H]1C[C@H](c2ccc(N(C)S(=O)(=O)c3ccc4c(c3)nc(C)n4C)cc2)[C@@H](C(=O)O)[C@H](C(=O)Nc2ccc(C(F)(F)F)cc2F)C1 (stereo in doubt)", "TARGET DESC": "recombinant full-length WRN protein (1-1432) (Homo sapiens)", "IC50 (nM)": 1.58}

For this molecule ( Cc1nc2cc(S(=O)(=O)N(C)c3ccc([C@@H]4C[C@@H](N5CCC[C@@H](F)C5)C[C@H](C(=O)Nc5ccc(C(F)(F)F)cc5F)[C@H]4C(=O)O)cc3)ccc2n1C (stereo in doubt) ), measured IC50 is 3980

Consider `CN(C)c1nc2cc(S(=O)(=O)N(C)c3ccc([C@H]4CCC[C@@H](C(=O)Nc5ccc(C(F)(F)F)cc5F)[C@@H]4C(=O)O)cc3)ccc2n1C` . Its measured IC50 is 3.16

Sure, the documented IC50 for `O=C(O)[C@@H]1[C@@H](c2ccc(-c3cncnc3)cc2)CCC[C@H]1C(=O)Nc1ccc(C(F)(F)F)cc1F` is 6.31

Data point: `Cc1nc2cc(S(=O)(=O)N(C)c3ccc([C@H]4CCC[C@@H](C(=O)N[C@H]5CC[C@@H](C6CCC6)CC5)[C@@H]4C(=O)O)cc3)ccc2n1C` ; IC50 = 398

IC50 reading for CCCO[C@@H]1C[C@H](c2ccc(N(C)S(=O)(=O)c3ccc4c(c3)nc(C)n4C)cc2)[C@@H](C(=O)O)[C@H](C(=O)Nc2ccc(C(F)(F)F)cc2F)C1 (stereo in doubt) : 3.16

Memo: `Cc1nc2cc(S(=O)(=O)N(C)c3ccc([C@H]4CCC[C@@H](C(=O)Nc5ccc(C(F)F)cc5F)[C@@H]4C(=O)O)cc3)ccc2n1C` , reported IC50: 2.51

# molecule CCN[C@@H]1CC[C@@H](C(=O)Nc2ccc(C(C)C)cc2)[C@H](C(=O)O)[C@H]1c1ccc(N(C)S(=O)(=O)c2ccc3c(c2)nc(C)n3C)cc1 (racemic) ; its IC50 = 1.58

Quick note, IC50 for `O=C(O)[C@@H]1[C@@H](c2ccc(-c3nsc4ccccc34)cc2)CCC[C@H]1C(=O)Nc1ccc(C(F)(F)F)cc1F` landed at 631

---

Target: recombinant full-length WRN protein (1-1432) (Homo sapiens, UniProt Q14191)
Construct: recombinant full-length WRN protein (1-1432)
Sequence (Q14191 whole entry): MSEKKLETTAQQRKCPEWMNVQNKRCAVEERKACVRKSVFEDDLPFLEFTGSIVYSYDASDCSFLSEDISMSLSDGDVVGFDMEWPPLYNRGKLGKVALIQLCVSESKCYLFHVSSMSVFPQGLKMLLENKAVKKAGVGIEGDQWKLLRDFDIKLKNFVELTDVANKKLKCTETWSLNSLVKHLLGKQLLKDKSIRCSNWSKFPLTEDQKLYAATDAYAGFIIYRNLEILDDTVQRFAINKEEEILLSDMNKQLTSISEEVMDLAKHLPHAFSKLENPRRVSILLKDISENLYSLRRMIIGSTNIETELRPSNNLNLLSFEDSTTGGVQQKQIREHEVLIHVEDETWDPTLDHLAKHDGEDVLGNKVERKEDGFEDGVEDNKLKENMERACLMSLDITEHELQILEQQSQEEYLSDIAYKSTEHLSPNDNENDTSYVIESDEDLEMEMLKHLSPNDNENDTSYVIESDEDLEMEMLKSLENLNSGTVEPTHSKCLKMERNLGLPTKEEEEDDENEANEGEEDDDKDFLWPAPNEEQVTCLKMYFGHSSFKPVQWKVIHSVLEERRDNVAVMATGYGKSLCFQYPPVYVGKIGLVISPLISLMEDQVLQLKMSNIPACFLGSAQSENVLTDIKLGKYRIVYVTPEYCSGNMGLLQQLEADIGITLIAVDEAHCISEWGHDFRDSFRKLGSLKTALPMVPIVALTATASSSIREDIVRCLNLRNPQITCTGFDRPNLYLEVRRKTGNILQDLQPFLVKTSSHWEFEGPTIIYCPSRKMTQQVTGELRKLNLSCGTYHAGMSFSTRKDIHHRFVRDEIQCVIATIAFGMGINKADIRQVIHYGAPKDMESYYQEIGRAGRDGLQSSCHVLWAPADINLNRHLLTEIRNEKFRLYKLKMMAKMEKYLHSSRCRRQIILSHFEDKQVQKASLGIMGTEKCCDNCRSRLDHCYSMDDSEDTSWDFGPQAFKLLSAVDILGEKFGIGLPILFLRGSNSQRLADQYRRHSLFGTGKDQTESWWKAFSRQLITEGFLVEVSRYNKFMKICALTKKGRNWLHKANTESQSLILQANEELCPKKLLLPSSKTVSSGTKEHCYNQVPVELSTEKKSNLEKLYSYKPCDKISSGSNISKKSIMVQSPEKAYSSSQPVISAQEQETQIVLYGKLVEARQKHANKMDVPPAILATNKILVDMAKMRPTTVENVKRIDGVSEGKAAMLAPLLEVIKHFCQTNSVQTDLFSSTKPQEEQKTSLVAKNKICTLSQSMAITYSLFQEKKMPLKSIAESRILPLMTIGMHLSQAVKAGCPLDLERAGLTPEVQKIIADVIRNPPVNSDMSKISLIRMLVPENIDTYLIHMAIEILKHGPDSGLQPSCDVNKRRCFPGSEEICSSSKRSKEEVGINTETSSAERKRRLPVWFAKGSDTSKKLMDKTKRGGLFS
Experiment: WRN unwinding activity, fluorogenic 384-well assay (Example A)
Type: biochemical
Conditions: WRN unwinding activity, 4 hr; Table 2; read-out: 4 hr UNW pIC50 (converted)
Response field label takes T when IC50 is strictly below 100 nM and F in all other cases.

{"MOLECULE": "Cc1nc2cc(S(=O)(=O)N(C)c3ccc([C@@H]4C[C@H](N)C[C@H](C(=O)Nc5ccc(C(F)(F)F)cc5F)[C@H]4C(=O)O)cc3)ccc2n1C (stereo in doubt) [Example 302]", "ANSWER LABEL": "F"}
{"MOLECULE": "Cc1nc2cc(S(=O)(=O)N(C)c3ccc([C@H]4C[C@@H](OC(C)C)C[C@@H](C(=O)Nc5ccc(C(F)(F)F)cc5F)[C@@H]4C(=O)O)cc3)ccc2n1C (stereo in doubt) [Example 311]", "ANSWER LABEL": "T"}
{"MOLECULE": "Cc1cc([C@H]2CCC[C@@H](C(=O)Nc3ccc(C(F)(F)F)cc3F)[C@@H]2C(=O)O)ccc1N(C)S(=O)(=O)c1ccc2c(c1)nc(C)n2C [Example 295]", "ANSWER LABEL": "T"}

Query: Threshold test, IC50 < 100 nM: CN(c1ccc([C@H]2CCC[C@@H](C(=O)Nc3ccc(C(F)(F)F)cc3F)[C@@H]2C(=O)O)cc1)S(=O)(=O)c1ccc2c(c1)CCN(C(=O)C(F)(F)F)C2 [Example 111]
Reply: T

Query: A record lists Cc1nc2cc(S(=O)(=O)N(C)c3ccc([C@H]4CCC[C@@H](C(=O)N[C@]56CC[C@H](CC5)C6)[C@@H]4C(=O)O)cc3)ccc2n1C [Example 193] . Is its IC50 below 100 nM?
Reply: F

Query: Regarding O=C(O)[C@@H]1[C@@H](c2ccc(-c3ccccc3COC3CCOCC3)cc2)CCC[C@H]1C(=O)Nc1ccc(C(F)(F)F)cc1F [Example 19] , kindly confirm whether its IC50 is beneath 100 nM.
Reply: F

Query: Lab log: compare recorded IC50 with 100 nM; is it strictly lower for Cc1cn2nc(-c3ccc([C@H]4CCC[C@@H](C(=O)Nc5ccc(C(F)(F)F)cc5F)[C@@H]4C(=O)O)cc3)ccc2n1 [Example 22] ?
Reply: F

Query: Regarding Cc1nc2cc(S(=O)(=O)N(C)c3ccc([C@H]4C[C@@H]5OCC[C@@H]5[C@@H](C(=O)Nc5ccc(C(F)(F)F)cc5F)[C@@H]4C(=O)O)cc3)ccc2n1C (single isomer, unassigned) [Example 157] , kindly confirm whether its IC50 is beneath 100 nM.
Reply: T

---

Here, each record is paired with measured IC50 data.
Molecular target: recombinant full-length WRN protein (1-1432) (Homo sapiens)
Construct: recombinant full-length WRN protein (1-1432)
Assay: WRN unwinding activity, fluorogenic 384-well assay (Example A)
Assay type: biochemical
Conditions: WRN unwinding activity, 4 hr; Table 2; read-out: 4 hr UNW pIC50 (converted)
The reply should consist of the numeric value with the unit placed after it.

Before answering, review these 2 worked examples.
{"MOLECULE": "Cc1nc2cc(S(=O)(=O)N(C)c3ccc([C@H]4C[C@H](N(C)C)C[C@@H](C(=O)Nc5ccc(C(F)(F)F)cc5F)[C@@H]4C(=O)O)cc3)ccc2n1C (relative stereo)", "IC50": "2 nM"}
{"MOLECULE": "CN(C)CCc1nc2cc(S(=O)(=O)N(C)c3ccc([C@H]4CCC[C@@H](COc5ccc(C(F)(F)F)cc5)[C@@H]4C(=O)O)cc3)ccc2n1C", "IC50": "2 nM"}

Lab note: next molecule to report on.
// IC50 lookup, molecule = `O=C(O)[C@@H]1[C@@H](c2ccc(-c3ccco3)cc2)CCC[C@H]1C(=O)Nc1ccc(C(F)(F)F)cc1F` , result: 794 nM

---

Molecular target: recombinant full-length WRN protein (1-1432) (Homo sapiens, UniProt Q14191)
Construct: recombinant full-length WRN protein (1-1432)
Assay: WRN unwinding activity, fluorogenic 384-well assay (Example A)
Assay type: biochemical
Conditions: WRN unwinding activity, 4 hr; Table 2; read-out: 4 hr UNW pIC50 (converted)
VALUE KIND: IC50 (nM)
Report the value in nM with no unit label.

Consider the worked cases shown below.
{"COMPOUND": "Cc1nc2cc(S(=O)(=O)N(C)c3ccc([C@H]4CCC[C@@H](C(=O)Nc5ccc(C(F)(F)F)cc5F)[C@@H]4C(=O)O)cc3C#CC(C)(C)O)ccc2n1C", "UNIT INFO": "nM", "IC50": 5.01}
{"COMPOUND": "Cc1nc2cc(S(=O)(=O)N(C)c3ccc([C@H]4CCC[C@@H](C(=O)Nc5ccc(C(C)C)cc5)[C@@H]4C(=O)O)cc3)ccc2n1C [Example 396]", "UNIT INFO": "nM", "IC50": 1.58}
{"COMPOUND": "Cc1nc2cc(S(=O)(=O)N(C)c3ccc([C@@H]4C[C@H](N5CC6(F)CC5C6)C[C@H](C(=O)Nc5ccc(C(F)(F)F)cc5F)[C@H]4C(=O)O)cc3)ccc2n1C (relative stereo)", "UNIT INFO": "nM", "IC50": 1.58}
{"COMPOUND": "Cc1nc2cc(S(=O)(=O)N(C)c3ccc([C@H]4C[C@@H](O[C@@H]5CCOC5)C[C@@H](C(=O)Nc5ccc(C(F)(F)F)cc5F)[C@@H]4C(=O)O)cc3)ccc2n1C (relative stereo)", "UNIT INFO": "nM", "IC50": 1.58}
{"COMPOUND": "CN(c1ccc([C@H]2CCC[C@@H](C(=O)Nc3ccc(C(F)(F)F)cc3F)[C@@H]2C(=O)O)cc1)S(=O)(=O)c1ccc2[nH]cnc2c1 (single isomer, unassigned) [Example 86]", "UNIT INFO": "nM", "IC50": 1.58}

From here, focus on the item given below.
For this compound ( `CN(c1ccc([C@H]2CCC[C@@H](C(=O)Nc3ccc(C(F)(F)F)cc3F)[C@@H]2C(=O)O)cc1)S(=O)(=O)c1ccc2nc(O)sc2c1` ), measured IC50 is 6.31
